test: Stability of Compound Ia (5 mg/ml) in aqueous solutions on storage at 56°C; type: physicochemical; conditions: ethanol/water 25/75, 5mg/ml, Ethanol/Water (v/v) 25/75, calculated dielectric constant 64.9, 56°C, 4 weeks; read-out: % Remaining (4 weeks)
Readout label: remaining at 672 h (%)
A number alone suffices; assume %.

Ask: remaining at 672 h for CCN(CC)CCNC(=O)c1cc(Cl)c(N)cc1OC(C)C(C)=O (stereo not shown) [Compound Ia] ?
Result: 98.7

====

test: Stability of Compound Ia (5 mg/ml) in aqueous solutions on storage at 56°C; format: physicochemical; conditions: 15% (w/v) glycerol, 5mg/ml, solvent 15% (w/v) Glycerol, calculated dielectric constant 71.8, 56°C, 4 weeks; read-out: % Remaining (4 weeks)
Readout label: remaining at 672 h (%)
A number alone suffices; assume %.

Ask: remaining at 672 h for CCN(CC)CCNC(=O)c1cc(Cl)c(N)cc1OC(C)C(C)=O (stereo not shown) ?
Result: 96.5
